Data origin: patent US11912693B2

Target: human sphingosine-1-phosphate receptor 1 (S1P1) (Homo sapiens (Human), UniProt P21453)
Sequence (P21453 whole entry, looked up): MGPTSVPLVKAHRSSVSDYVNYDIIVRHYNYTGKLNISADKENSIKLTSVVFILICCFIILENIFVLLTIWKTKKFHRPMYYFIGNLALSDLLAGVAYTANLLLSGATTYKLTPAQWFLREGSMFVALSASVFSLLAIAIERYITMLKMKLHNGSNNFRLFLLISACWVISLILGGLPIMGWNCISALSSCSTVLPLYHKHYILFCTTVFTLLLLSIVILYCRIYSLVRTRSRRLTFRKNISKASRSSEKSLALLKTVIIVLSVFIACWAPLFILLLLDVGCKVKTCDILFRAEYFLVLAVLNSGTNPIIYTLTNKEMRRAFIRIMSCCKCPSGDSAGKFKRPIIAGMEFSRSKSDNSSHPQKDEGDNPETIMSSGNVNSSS
Sequence (P32121 whole entry partner, looked up): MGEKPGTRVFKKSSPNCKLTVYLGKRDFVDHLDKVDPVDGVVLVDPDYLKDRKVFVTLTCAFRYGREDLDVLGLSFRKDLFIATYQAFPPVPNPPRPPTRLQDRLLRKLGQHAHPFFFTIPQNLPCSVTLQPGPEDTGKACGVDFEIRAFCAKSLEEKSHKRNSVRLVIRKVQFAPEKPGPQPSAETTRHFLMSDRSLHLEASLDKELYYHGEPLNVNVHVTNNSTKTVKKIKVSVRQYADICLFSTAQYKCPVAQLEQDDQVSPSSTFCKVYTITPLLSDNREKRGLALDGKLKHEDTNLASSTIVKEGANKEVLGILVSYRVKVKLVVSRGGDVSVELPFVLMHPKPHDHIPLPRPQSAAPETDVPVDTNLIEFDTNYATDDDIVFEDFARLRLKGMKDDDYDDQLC
Assay: β-Arrestin2 recruitment assay (PathHunter), S1P1 CHO-K1 cells
Type: cell-based
Conditions: β-arrestin2 recruitment, S1P1 CHO-K1 cells
ASSAY ENDPOINT: hS1P1 B-arrestin2 pEC50

{"MOLECULE": "CCC1(CC)CC(=O)c2cc(-c3nc(-c4cn[nH]c4)no3)ccc2O1 [Compound 469]", "ASSAY ENDPOINT": "hS1P1 B-arrestin2 pEC50", "VALUE MEASURED": ">5"}

Form field: reported hS1P1 B-arrestin2 pEC50 of CCC1(CC)CC(=O)c2cc(-c3nc(-c4cncc(NC(C)=O)c4)no3)ccc2O1 [Compound 538]
>5

Form field: reported hS1P1 B-arrestin2 pEC50 of Cc1ccccc1-c1nsc(-c2ccc3c(ccn3C(C)C)c2)n1 [Compound 381]
>5

Form field: reported hS1P1 B-arrestin2 pEC50 of COc1cc(NC(C)=O)ccc1-c1noc(-c2ccc3c(c2)nnn3C(C)C)n1 [Compound 532]
>5

Form field: reported hS1P1 B-arrestin2 pEC50 of Cc1nc2cc(-c3nnc(-c4ccc(NC(C)C)c(C#N)c4)o3)ccc2[nH]1 [Compound 560]
>5

Form field: reported hS1P1 B-arrestin2 pEC50 of CC(C)Cn1nnc2cc(-c3nc4cccc(Br)c4o3)ccc21 [Compound 454]
>5

====

Target: human sphingosine-1-phosphate receptor 1 (S1P1) (Homo sapiens (Human), UniProt P21453)
Assay: β-Arrestin2 recruitment assay (PathHunter), S1P1 CHO-K1 cells
Assay type: cell-based
Conditions: CHO-K1; efficacy (SPAN) normalized to fingolimod; read-out: hS1P1 B-arrestin2 SPAN
Measured Emax accompanies every entry in the list below.

Please review the following examples before continuing.
{"COMPOUND": "CCC1(CC)CC(=O)c2cc(-c3nc(-c4ccc(OC)nc4)no3)ccc2O1 [Compound 301]", "TARGET DESC": "human sphingosine-1-phosphate receptor 1 (S1P1) (Homo sapiens (Human), UniProt P21453)", "Emax": "< 75%"}
{"COMPOUND": "Cc1ccccc1C(C)c1noc(-c2ccc3c(c2)nnn3C(C)C)n1 (stereo not drawn) [Compound 172]", "TARGET DESC": "human sphingosine-1-phosphate receptor 1 (S1P1) (Homo sapiens (Human), UniProt P21453)", "Emax": "< 75%"}
{"COMPOUND": "CC(C)n1nnc2cc(-c3noc(-c4ccccc4C#N)n3)ccc21 [Compound 279]", "TARGET DESC": "human sphingosine-1-phosphate receptor 1 (S1P1) (Homo sapiens (Human), UniProt P21453)", "Emax": "> 75%"}
{"COMPOUND": "Cc1ccc2oc(-c3ccc4c(c3)nnn4CC(C)C)nc2c1 [Compound 437]", "TARGET DESC": "human sphingosine-1-phosphate receptor 1 (S1P1) (Homo sapiens (Human), UniProt P21453)", "Emax": "< 75%"}
{"COMPOUND": "COc1ccccc1-c1nc(-c2ccc3c(c2)nnn3C(C)C)ns1 [Compound 138]", "TARGET DESC": "human sphingosine-1-phosphate receptor 1 (S1P1) (Homo sapiens (Human), UniProt P21453)", "Emax": "> 75%"}

Form field: reported Emax of CC(F)(F)CNc1ccc(-c2nnc(-c3ccc4[nH]cnc4c3)o2)cc1C#N [Compound 520]
> 75%

Form field: reported Emax of CCC1(CC)CC(=O)c2cc(-c3nc(-c4ccc(Cl)cc4)no3)ccc2O1 [Compound 68]
< 75%

Form field: reported Emax of COc1ccc2nc(-c3ccc4c(c3)nnn4CC(C)C)oc2c1 [Compound 452]
< 75%

Form field: reported Emax of CCC1(CC)CC(=O)c2cc(-c3nc(-c4cccnc4)no3)ccc2O1 [Compound 103]
> 75%
